System: Rattus norvegicus
Experiment: In vivo angiotensin II like activity determined in rat blood pressure assay measured as increase in BP by 1 ug iv of compound
Assay type: functional
Numbered stars: 1 amine (or outer) side, 2 acyl side, 3 side chain; on linkers, the order of the positions; unused ones are H or OH. Square brackets hold non-standard residues; d marks the D form. Peptide text beside a SMILES is read from it. X1 = CC(c1ccccc1)[C@H](N[*:1])C(=O)[*:2]; Pen = CC(C)(S)[C@H](N)C(=O)O; Sar = CNCC(=O)O
VALUE_TYPE: BP (mmHg)
Write it as a number; the unit mmHg goes unstated.

| COMPOUND | STUDY_SYSTEM | BP (mmHg) |
| --- | --- | --- |
| CNCC(=O)N[C@@H](CCCN=C(N)N)C(=O)N[C@H](C(=O)N[C@@H](Cc1ccc(O)cc1)C(=O)N[C@H](C(=O)N[C@@H](Cc1c[nH]cn1)C(=O)N1CCC[C@H]1C(=O)N[C@@H](Cc1ccccc1)C(=O)O)C(C)(C)SC)C(C)C (H-[Sar]RVY[Pen](Me)HPF-OH) | Rattus norvegicus | 60 |

In: Endpoint output: BP of CC[C@H](C)[C@H](NC(=O)[C@@H]1CCCN1C(=O)[C@H](Cc1c[nH]cn1)NC(=O)[C@@H](NC(=O)[C@H](Cc1ccc(O)cc1)NC(=O)[C@@H](NC(=O)[C@H](CCCN=C(N)N)NC(=O)CNC)C(C)C)C(C)c1ccccc1)C(=O)O (stereo partly drawn) (H-[Sar]RVY[X1]HPI-OH) . Value?
Out: 10

In: Endpoint output: BP of CC[C@H](C)[C@H](NC(=O)[C@@H]1CCCN1C(=O)[C@H](Cc1c[nH]cn1)NC(=O)[C@H](Cc1ccc(O)cc1)NC(=O)[C@H](Cc1ccc(O)cc1)NC(=O)[C@@H](NC(=O)[C@H](CCCN=C(N)N)NC(=O)CNC)C(C)C)C(=O)O . Value?
Out: 2.5
